test: Pharmacokinetics of S9229 in rats, single iv or oral dose; format: in vivo, Sprague-Dawley rats; settings: male, Sprague-Dawley, rat, plasma, po, 30 mg/kg
QUANTITY: Tmax
# output: numeric value plus its unit

What value of measured Tmax is listed for COC[C@@H](CC(C)C)NC(=O)c1ccc(C)c(C)c1 [S9229] ?
15 min

---

test: Pharmacokinetics of S807 in rats, single iv or oral dose; type: in vivo, Sprague-Dawley rats; conditions: male, Sprague-Dawley, rat, plasma, po, 200 mg/kg
QUANTITY: half-life (h)
Please reply with the bare figure in h and do not write the unit itself.

What value of measured half-life is listed for CCCC(CCC)NC(=O)c1ccc2c(c1)OCO2 ?
2.49

---

assay: Pharmacokinetics of S9229 in rats, single iv or oral dose; format: in vivo, Sprague-Dawley rats; details: male, Sprague-Dawley, rat, plasma, iv, 1 mg/kg
QUANTITY: Vd

What value of measured Vd is listed for COC[C@@H](CC(C)C)NC(=O)c1ccc(C)c(C)c1 ?
3.47 L/kg

---

assay: Pharmacokinetics of S807 in rats, single iv or oral dose; assay type: in vivo, Sprague-Dawley rats; settings: female, Sprague-Dawley, rat, plasma, po, 50 mg/kg
QUANTITY: half-life (h)
Please reply with the bare figure in h and do not write the unit itself.

What value of measured half-life is listed for CCCC(CCC)NC(=O)c1ccc2c(c1)OCO2 [S807] ?
1.17

---

assay: Pharmacokinetics of S807 in rats, single iv or oral dose; type: in vivo, Sprague-Dawley rats; details: male, Sprague-Dawley, rat, plasma, iv, 1 mg/kg
QUANTITY: half-life (h)
Please reply with the bare figure in h and do not write the unit itself.

What value of measured half-life is listed for CCCC(CCC)NC(=O)c1ccc2c(c1)OCO2 [S807] ?
3.02

---

assay: Pharmacokinetics of S807 in rats, single iv or oral dose; type: in vivo, Sprague-Dawley rats; conditions: female, Sprague-Dawley, rat, plasma, iv, 1 mg/kg
QUANTITY: Vd (L/kg)
Please reply with the bare figure in L/kg and do not write the unit itself.

What value of measured Vd is listed for CCCC(CCC)NC(=O)c1ccc2c(c1)OCO2 ?
5.61

---

experiment: Pharmacokinetics of S807 in rats, single iv or oral dose; assay type: in vivo, Sprague-Dawley rats; settings: male, Sprague-Dawley, rat, plasma, po, 50 mg/kg
QUANTITY: AUC(0-t) (ng·h/mL)
Please reply with the bare figure in ng·h/mL and do not write the unit itself.

What value of measured AUC(0-t) is listed for CCCC(CCC)NC(=O)c1ccc2c(c1)OCO2 ?
4890

---

test: Toxicokinetics of S9229 in the 28-day rat study; assay type: in vivo, Sprague-Dawley rats; conditions: female, Sprague-Dawley (Crl:CD(SD)), rat, plasma, po, 10 mg/kg, Cmax, Day 1, 10 mg/kg bw, F
QUANTITY: Cmax (ng/mL)
Please reply with the bare figure in ng/mL and do not write the unit itself.

What value of measured Cmax is listed for COC[C@@H](CC(C)C)NC(=O)c1ccc(C)c(C)c1 ?
15.6

---

assay: Pharmacokinetics of S807 in rats, single iv or oral dose; type: in vivo, Sprague-Dawley rats; settings: female, Sprague-Dawley, rat, plasma, po, 200 mg/kg
QUANTITY: half-life (h)
Please reply with the bare figure in h and do not write the unit itself.

What value of measured half-life is listed for CCCC(CCC)NC(=O)c1ccc2c(c1)OCO2 [S807] ?
2.62
